Please provide measured inhibition at 0.5 µM for the entries that follow.
Test system: MV-4-11
PROTOCOL_DESCRIPTION: Tumor cell proliferation inhibition (CellTiter-Meiluncell Luminescent Cell Viability Assay)
Type: cell-based
SETUP_CONDITIONS: Homo sapiens, MV4-11, 500 nM, 96 hours, Table I-13, CDK2 inhibitors, read-out: Inhibition Rate at 500 nM (%)

*Q* # input compound: Cc1ccsc1C(=O)n1nc(Nc2ccc(S(=O)(=O)N3CCN(Cc4cccc5c4CN(C4CCC(=O)NC4=O)C5=S)CC3)cc2)nc1N (stereo not shown) ; wanted: its inhibition at 0.5 µM
*A* 60 to 70%

*Q* # input compound: Cc1ccsc1C(=O)n1nc(Nc2ccc(S(=O)(=O)N3CCN(Cc4ccc5c(c4)CN(C4CCC(=O)NC4=O)C5=S)CC3)cc2)nc1N (stereo not shown) ; wanted: its inhibition at 0.5 µM
*A* 50 to 60%

*Q* # input compound: Cc1cc(S(=O)(=O)N2CCN(Cc3cccc4c3CN(C3CCC(=O)NC3=O)C4=S)CC2)ccc1Nc1ncc(Br)c(Nc2cccc(F)c2C(N)=O)n1 (stereo not shown) ; wanted: its inhibition at 0.5 µM
*A* 60 to 70%

*Q* # input compound: Cc1ccsc1C(=O)n1nc(Nc2ccc(S(=O)(=O)N3CCN(Cc4ccc5c(c4)C(=S)N(C4CCC(=O)NC4=O)C5)CC3)cc2)nc1N (stereo not shown) ; wanted: its inhibition at 0.5 µM
*A* 60 to 70%

###

MEASURED_ON: human Cereblon WT GST-tagged protein (Homo sapiens, UniProt Q96SW2)
Construct: purchased CISBIO 64BDCRBNPEH
Sequence (Q96SW2 whole entry): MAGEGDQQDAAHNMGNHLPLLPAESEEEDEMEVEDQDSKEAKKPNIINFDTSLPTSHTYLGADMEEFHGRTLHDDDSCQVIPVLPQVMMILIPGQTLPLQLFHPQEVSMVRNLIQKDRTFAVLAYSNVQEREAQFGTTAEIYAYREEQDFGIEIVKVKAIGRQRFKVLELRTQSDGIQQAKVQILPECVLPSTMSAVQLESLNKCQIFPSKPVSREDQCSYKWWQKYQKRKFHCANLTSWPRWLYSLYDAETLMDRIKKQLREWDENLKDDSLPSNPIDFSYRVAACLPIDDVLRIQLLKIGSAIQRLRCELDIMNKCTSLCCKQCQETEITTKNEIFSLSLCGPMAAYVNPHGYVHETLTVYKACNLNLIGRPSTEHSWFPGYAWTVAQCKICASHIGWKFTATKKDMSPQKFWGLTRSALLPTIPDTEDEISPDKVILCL
PROTOCOL_DESCRIPTION: CRBN-binding affinity, HTRF (CEREBLON BINDING kit)
SETUP_CONDITIONS: read-out: Inhibition Rate at 2 µM (%)
Please provide measured inhibition at 2 µM for the entries that follow.

*Q* Identify the measured inhibition at 2 µM of O=C1CCC(N2Cc3c(CN4C[C@H]5C[C@@H]4CN5c4ccc(-c5cc(F)c6c(c5)C(=O)N(C(C(=O)Nc5nccs5)c5ncn7c5CCC7)C6)cc4)cccc3C2=S)C(=O)N1 (stereo partly drawn) for human Cereblon WT GST-tagged protein (Homo sapiens, UniProt Q96SW2).
*A* 53 to 60%

*Q* Identify the measured inhibition at 2 µM of Cn1c2ccncc2c2ccc(-c3cnc(N4CCN(Cc5ccc6c(c5)CN(C5CCC(=O)NC5=O)C6=S)CC4)c(Cl)c3)cc21 (stereo not drawn) for human Cereblon WT GST-tagged protein (Homo sapiens, UniProt Q96SW2).
*A* 60 to 80%

*Q* Identify the measured inhibition at 2 µM of Cc1cc(-c2ccc3c4cnccc4n(C)c3c2)cnc1N1CCN(Cc2ccc3c(c2)CN(C2CCC(=O)NC2=O)C3=S)CC1 (stereo not drawn) for human Cereblon WT GST-tagged protein (Homo sapiens, UniProt Q96SW2).
*A* 60 to 80%

*Q* Identify the measured inhibition at 2 µM of CCc1cc2c(cc1N1CCC(N3CCN(Cc4ccc5c(c4)CN(C4CCC(=O)NC4=O)C5=S)CC3)CC1)C(C)(C)c1[nH]c3cc(C#N)ccc3c1C2=O (stereo not drawn) for human Cereblon WT GST-tagged protein (Homo sapiens, UniProt Q96SW2).
*A* 80 to 100%

*Q* Identify the measured inhibition at 2 µM of Nc1nnc(-c2cc(F)ccc2O)cc1N1CC2CCC(C1)N2Cc1ccc2c(c1)CN(C1CCC(=O)NC1=O)C2=S (stereo not drawn) for human Cereblon WT GST-tagged protein (Homo sapiens, UniProt Q96SW2).
*A* 80 to 100%

*Q* Identify the measured inhibition at 2 µM of CCc1cc2c(cc1N1CCN(Cc3ccc4c(c3)CN(C3CCC(=O)NC3=O)C4=S)CC1)C(C)(C)c1[nH]c3cc(C#N)ccc3c1C2=O (stereo not drawn) for human Cereblon WT GST-tagged protein (Homo sapiens, UniProt Q96SW2).
*A* 60 to 80%
